Molecular target: Peroxisome proliferator-activated receptor delta (Homo sapiens, UniProt Q03181)
Sequence (Q03181 whole entry): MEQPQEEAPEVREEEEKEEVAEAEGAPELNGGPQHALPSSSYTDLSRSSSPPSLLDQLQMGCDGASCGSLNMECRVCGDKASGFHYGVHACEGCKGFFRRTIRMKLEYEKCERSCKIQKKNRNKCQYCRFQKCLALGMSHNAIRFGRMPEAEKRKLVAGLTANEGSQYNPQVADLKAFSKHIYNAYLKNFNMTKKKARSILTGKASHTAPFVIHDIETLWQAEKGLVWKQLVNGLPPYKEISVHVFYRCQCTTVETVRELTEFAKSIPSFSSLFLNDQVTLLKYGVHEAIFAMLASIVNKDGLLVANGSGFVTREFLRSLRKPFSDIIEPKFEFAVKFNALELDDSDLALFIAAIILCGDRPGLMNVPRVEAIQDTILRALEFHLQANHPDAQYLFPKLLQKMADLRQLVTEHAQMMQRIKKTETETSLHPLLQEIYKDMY
Assay: Agonist activity at human PPARdelta expressed in CV1 cells by transactivation assay
The reader will find reported EC50 values listed item by item below.

compound: CC(C)(Oc1ccc(C(=O)c2ccc(Cl)cc2)cc1)C(=O)O [FENOFIBRIC ACID]
EC50: > 100 µM
--
compound: Cc1ccc(-c2nc(CCCC[C@H]3CO[C@@](C)(C(=O)O)OC3)c(C)o2)cc1
EC50: > 100 µM

Incoming: Identify measured EC50 associated with CC(C)(Oc1ccc(CCNC(=O)c2ccc(Cl)cc2)cc1)C(=O)O [BEZAFIBRATE]
Outgoing: 30 µM

----------
The reader will find reported Activity values listed item by item below.
Target: Peroxisome proliferator-activated receptor gamma (Homo sapiens)
Sequence (whole entry): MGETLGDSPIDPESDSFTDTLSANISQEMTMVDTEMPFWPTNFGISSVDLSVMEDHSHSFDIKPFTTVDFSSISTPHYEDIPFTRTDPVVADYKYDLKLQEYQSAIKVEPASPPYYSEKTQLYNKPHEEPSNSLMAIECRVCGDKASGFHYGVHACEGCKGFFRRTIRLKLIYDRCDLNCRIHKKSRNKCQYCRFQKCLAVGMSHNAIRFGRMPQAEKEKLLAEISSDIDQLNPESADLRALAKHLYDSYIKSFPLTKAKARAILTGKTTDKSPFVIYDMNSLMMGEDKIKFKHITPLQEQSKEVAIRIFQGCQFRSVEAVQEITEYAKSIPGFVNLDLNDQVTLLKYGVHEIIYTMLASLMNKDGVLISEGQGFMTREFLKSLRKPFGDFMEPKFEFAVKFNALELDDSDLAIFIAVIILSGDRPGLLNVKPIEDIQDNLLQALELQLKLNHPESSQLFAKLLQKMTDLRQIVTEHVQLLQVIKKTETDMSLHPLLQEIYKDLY
Assay: Agonist activity at human PPARgamma expressed in CV1 cells at 10 uM by transactivation assay
Type: functional, cell-based
Settings: CV-1
Write the value in % as a bare number.

smiles-string: Cc1ccc(-c2nc(CCCC[C@H]3CO[C@@](C)(C(=O)O)OC3)c(C)o2)cc1C
number: 42

Incoming: Identify measured Activity associated with Cc1ccc(-c2nc(CCCC[C@H]3CO[C@@](C)(C(=O)O)OC3)c(C)o2)cc1
Outgoing: 31

Incoming: Identify measured Activity associated with Cc1oc(-c2ccc(Cl)cc2)nc1CCCC[C@H]1CO[C@@](C)(C(=O)O)OC1
Outgoing: 21

Incoming: Identify measured Activity associated with COc1ccc(-c2nc(CCCC[C@H]3CO[C@@](C)(C(=O)O)OC3)c(C)o2)cc1
Outgoing: 18

Incoming: Identify measured Activity associated with Cc1ccc(-c2nc(CCCC[C@H]3CO[C@@](C)(C(=O)O)OC3)c(C)o2)cc1F
Outgoing: 45

Incoming: Identify measured Activity associated with Cc1cccc(-c2nc(CCCC[C@H]3CO[C@@](C)(C(=O)O)OC3)c(C)o2)c1
Outgoing: 34

----------
The reader will find reported EC50 values listed item by item below.
Target: Peroxisome proliferator-activated receptor alpha (Mus musculus)
Sequence (P23204 whole entry): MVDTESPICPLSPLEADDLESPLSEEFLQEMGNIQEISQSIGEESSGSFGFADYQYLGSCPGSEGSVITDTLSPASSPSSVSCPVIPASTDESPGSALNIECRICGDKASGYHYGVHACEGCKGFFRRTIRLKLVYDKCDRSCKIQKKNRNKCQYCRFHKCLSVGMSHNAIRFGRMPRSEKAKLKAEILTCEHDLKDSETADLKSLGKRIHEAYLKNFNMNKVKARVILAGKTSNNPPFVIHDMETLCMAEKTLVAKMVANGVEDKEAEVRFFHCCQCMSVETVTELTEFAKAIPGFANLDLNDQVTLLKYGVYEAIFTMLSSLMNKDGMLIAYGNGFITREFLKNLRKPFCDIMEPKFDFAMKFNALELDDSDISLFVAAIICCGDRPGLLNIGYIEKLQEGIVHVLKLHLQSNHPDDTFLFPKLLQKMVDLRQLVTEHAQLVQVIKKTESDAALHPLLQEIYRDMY
Assay: Agonist activity at mouse PPARalpha expressed in CV1 cells by transactivation assay
Format: functional, cell-based, CV-1
Write the value in nM as a bare number.

Solved cases below.
smiles-string: Cc1ccc(-c2nc(CCCC[C@H]3CO[C@@](C)(C(=O)O)OC3)c(C)o2)cc1F
measured-on: Peroxisome proliferator-activated receptor alpha (Mus musculus)
EC50, nM: 100
//
smiles-string: Cc1oc(-c2ccccc2)nc1CCCC[C@H]1CO[C@@](C)(C(=O)O)OC1
measured-on: Peroxisome proliferator-activated receptor alpha (Mus musculus)
EC50, nM: 1000
//
smiles-string: Cc1ccc(-c2nc(CCCC[C@H]3CO[C@@](C)(C(=O)O)OC3)c(C)o2)cc1
measured-on: Peroxisome proliferator-activated receptor alpha (Mus musculus)
EC50, nM: 30

Switching to the query record.
Incoming: Identify measured EC50 associated with Cc1ccc(-c2nc(CCCC[C@H]3CO[C@@](C)(C(=O)O)OC3)c(C)o2)cc1C
Outgoing: 30
